The reported measurements were obtained from patent US8791108B2.

pEC50 reference
- Tested on: recombinant NL-Rluc virus
- protocol_details: Inhibition of HIV replication (NL-RLuc luciferase reporter virus, MT-2 cells)
- Format: cell-based
- condition_label: Human immunodeficiency virus 1, MT2, 120 h, read-out: Activity
pEC50: −log10 of the molar value.

Use these answered entries as a reference point.
Cc1nc2cc(C(=O)NCc3ccc(F)cc3S(C)(=O)=O)nn2c(-c2cc(F)c3c(c2C)CCCO3)c1[C@H](OC(C)(C)C)C(=O)O : 6.00 to 7.00
Cc1nc2cc(C(=O)NCc3nc4ccccc4s3)nn2c(-c2cc(F)c3c(c2C)CCCO3)c1[C@H](OC(C)(C)C)C(=O)O : > 7.00
Cc1nc2cc(C(=O)NCCc3ccccc3Cl)nn2c(-c2cc(F)c3c(c2C)CCCO3)c1[C@H](OC(C)(C)C)C(=O)O : > 7.00
Cc1nc2cc(C(=O)NCCC3CCOCC3)nn2c(-c2cc(F)c3c(c2C)CCCO3)c1[C@H](OC(C)(C)C)C(=O)O : 6.00 to 7.00
Cc1nc2cc(C(=O)N(C)Cc3ccc(F)cc3)nn2c(-c2cc(F)c3c(c2C)CCCO3)c1[C@H](OC(C)(C)C)C(=O)O : > 7.00
CCCNC(=O)c1cc2nc(C)c([C@H](OC(C)(C)C)C(=O)O)c(-c3cc(F)c4c(c3C)CCCO4)n2n1 : 6.00 to 7.00
CCCCc1ccc(CNC(=O)c2cc3nc(C)c([C@H](OC(C)(C)C)C(=O)O)c(-c4cc(F)c5c(c4C)CCCO5)n3n2)cc1 : > 7.00
Cc1nc2cc(C(=O)N3CCC(c4ccc(Cl)cc4)CC3)nn2c(-c2cc(F)c3c(c2C)CCCO3)c1[C@H](OC(C)(C)C)C(=O)O : > 7.00
Cc1nc2cc(C(=O)NCCc3cccc(Cl)c3)nn2c(-c2cc(F)c3c(c2C)CCCO3)c1[C@H](OC(C)(C)C)C(=O)O : > 7.00
Cc1nc2cc(C(=O)NCCOc3ccccc3)nn2c(-c2cc(F)c3c(c2C)CCCO3)c1[C@H](OC(C)(C)C)C(=O)O : > 7.00

Moving on to the next compound.
May I ask what pEC50 has been recorded for Cc1nc2cc(C(=O)NCCC3CCCN3C)nn2c(-c2cc(F)c3c(c2C)CCCO3)c1[C@H](OC(C)(C)C)C(=O)O (stereo partly shown) ?
< 6.00

====

EC50 reference
- Test system: recombinant NL-Rluc virus
- protocol_details: Inhibition of HIV replication (NL-RLuc luciferase reporter virus, MT-2 cells)
- Assay type: cell-based
- condition_label: Human immunodeficiency virus 1, MT2, 120 h, read-out: Activity

Cc1nc2cc(C(=O)NCCCc3ccccc3)nn2c(-c2cc(F)c3c(c2C)CCCO3)c1[C@H](OC(C)(C)C)C(=O)O : < 100 nM
Cc1nc2cc(C(=O)N3CCC(Cc4ccccc4)CC3)nn2c(-c2cc(F)c3c(c2C)CCCO3)c1[C@H](OC(C)(C)C)C(=O)O : < 100 nM
Cc1nc2cc(C(=O)NCCc3nc4ccccc4s3)nn2c(-c2cc(F)c3c(c2C)CCCO3)c1[C@H](OC(C)(C)C)C(=O)O : < 100 nM
Cc1nc2cc(C(=O)N3CCN(c4cccc(Cl)c4)CC3)nn2c(-c2cc(F)c3c(c2C)CCCO3)c1[C@H](OC(C)(C)C)C(=O)O : < 100 nM
Cc1nc2cc(C(=O)N3CCC(N4CCCCC4)CC3)nn2c(-c2cc(F)c3c(c2C)CCCO3)c1[C@H](OC(C)(C)C)C(=O)O : > 1000 nM

Moving on to the next compound.
May I ask what EC50 has been recorded for Cc1nc2cc(C(=O)NCc3ccc(Cl)cc3)nn2c(-c2cc(F)c3c(c2C)CCCO3)c1[C@H](OC(C)(C)C)C(=O)O ?
< 100 nM

====

EC50 reference
- Tested on: recombinant NL-Rluc virus
- protocol_details: Inhibition of HIV replication (NL-RLuc luciferase reporter virus, MT-2 cells)
- Format: cell-based
- condition_label: Human immunodeficiency virus 1, MT2, 120 h, read-out: Activity

Use these answered entries as a reference point.
Cc1nc2cc(C(=O)N(C)Cc3ccccc3F)nn2c(-c2cc(F)c3c(c2C)CCCO3)c1[C@H](OC(C)(C)C)C(=O)O : < 100 nM
Cc1nc2cc(C(=O)NCCCn3ccnc3)nn2c(-c2cc(F)c3c(c2C)CCCO3)c1[C@H](OC(C)(C)C)C(=O)O : > 1000 nM
Cc1nc2cc(C(=O)NCc3ccc(Cl)cc3Cl)nn2c(-c2cc(F)c3c(c2C)CCCO3)c1[C@H](OC(C)(C)C)C(=O)O : < 100 nM
Cc1nc2cc(C(=O)NCc3ccc(S(N)(=O)=O)cc3)nn2c(-c2cc(F)c3c(c2C)CCCO3)c1[C@H](OC(C)(C)C)C(=O)O : > 1000 nM
Cc1cccc(CNC(=O)c2cc3nc(C)c([C@H](OC(C)(C)C)C(=O)O)c(-c4cc(F)c5c(c4C)CCCO5)n3n2)c1 : < 100 nM

Moving on to the next compound.
May I ask what EC50 has been recorded for Cc1nc2cc(C(=O)NCc3cccc(Cl)c3)nn2c(-c2cc(F)c3c(c2C)CCCO3)c1[C@H](OC(C)(C)C)C(=O)O ?
< 100 nM

====

- Tested on: recombinant NL-Rluc virus
- protocol_details: Inhibition of HIV replication (NL-RLuc luciferase reporter virus, MT-2 cells)
- Assay type: cell-based
- condition_label: Human immunodeficiency virus 1, MT2, 120 h, read-out: Activity
measurement_name: EC50

Cc1nc2cc(C(=O)NCCC(C)(C)C)nn2c(-c2cc3c(cc2F)OCCN3)c1[C@H](OC(C)(C)C)C(=O)O [Example 146] : < 0.1 µM
Cc1nc2cc(C(=O)NCc3cccnc3)nn2c(-c2cc(F)c3c(c2C)CCCO3)c1[C@H](OC(C)(C)C)C(=O)O [Example 61] : > 1 µM
Cc1nc2cc(C(=O)NCc3ccc(F)cc3)nn2c(-c2cc(F)c3c(c2C)CCCO3)c1[C@H](OC(C)(C)C)C(=O)O [Example 1] : < 0.1 µM
Cc1nc2cc(C(=O)NS(=O)(=O)c3ccccc3)nn2c(-c2cc(F)c3c(c2C)CCCO3)c1[C@H](OC(C)(C)C)C(=O)O [Example 13] : > 1 µM
Cc1nc2cc(C(=O)NCc3cccc(OC(F)(F)F)c3)nn2c(-c2cc(F)c3c(c2C)CCCO3)c1[C@H](OC(C)(C)C)C(=O)O [Example 67] : < 0.1 µM

May I ask what EC50 has been recorded for Cc1nc2cc(C(=O)NCCC(C)(C)C)nn2c(N2CCC(C)(C)CC2)c1[C@H](OC(C)(C)C)C(=O)O [Example 152] ?
< 0.1 µM

Also Cc1nc2cc(C(=O)NCc3ccc(-c4ccccc4)cc3)nn2c(-c2cc(F)c3c(c2C)CCCO3)c1[C@H](OC(C)(C)C)C(=O)O [Example 70] , if possible.
< 0.1 µM

====

EC50 reference
- Tested on: recombinant NL-Rluc virus
- protocol_details: Inhibition of HIV replication (NL-RLuc luciferase reporter virus, MT-2 cells)
- Format: cell-based
- condition_label: Human immunodeficiency virus 1, MT2, 120 h, read-out: EC50 μM
Write the number in µM without appending the unit.

Use these answered entries as a reference point.
Cc1nc2cc(C(=O)NCCC(C)(C)C)nn2c(-c2ccc3c(c2Cl)NCCO3)c1[C@H](OC(C)(C)C)C(=O)O : 0.122
CNC(=O)c1cc(F)ccc1CNC(=O)c1cc2nc(C)c([C@H](OC(C)(C)C)C(=O)O)c(-c3cc(F)c4c(c3C)CCCO4)n2n1 : 3.2
Cc1nc2cc(C(=O)NCc3ccc(F)cc3-c3ncnn3C)nn2c(-c2cc(F)c3c(c2C)CCCO3)c1[C@H](OC(C)(C)C)C(=O)O : 0.547
CCCCOc1cc(F)ccc1CNC(=O)c1cc2nc(C)c([C@H](OC(C)(C)C)C(=O)O)c(-c3ccc4c(c3Cl)NCCO4)n2n1 : 0.028
Cc1nc2cc(C(=O)NS(=O)(=O)c3ccccc3)nn2c(-c2cc(F)c3c(c2C)CCCO3)c1[C@H](OC(C)(C)C)C(=O)O : 40

May I ask what EC50 has been recorded for Cc1cc(CNC(=O)c2cc3nc(C)c([C@H](OC(C)(C)C)C(=O)O)c(-c4ccc5c(c4Cl)NCCO5)n3n2)ccc1F ?
0.114

Also CCCOCCNC(=O)c1cc2nc(C)c([C@H](OC(C)(C)C)C(=O)O)c(-c3cc(F)c4c(c3C)CCCO4)n2n1 , if possible.
0.185

Also Cc1nc2cc(C(=O)NCCC(C)(C)C)nn2c(/C=C/CC(C)C)c1[C@H](OC(C)(C)C)C(=O)O , if possible.
1.2

Also Cc1nc2cc(C(=O)NCc3ncc(F)cc3F)nn2c(-c2cc(F)c3c(c2C)CCCO3)c1[C@H](OC(C)(C)C)C(=O)O , if possible.
0.255

Also Cc1nc2cc(C(=O)N(C)CCCn3ccnc3)nn2c(-c2cc(F)c3c(c2C)CCCO3)c1[C@H](OC(C)(C)C)C(=O)O , if possible.
20

Also Cc1nccc(-c2cccc(NC(=O)c3cc4nc(C)c([C@H](OC(C)(C)C)C(=O)O)c(-c5cc(F)c6c(c5C)CCCO6)n4n3)c2)n1 , if possible.
0.016
